Where do the numbers come from? From ChEMBL document CHEMBL5303304.

Test system: U2OS
Assay: Incucyte cell viability with U2OS; also: unitless GR value; below 1 slowed growth and below 0 cell loss
Type: toxicity, cell-based
Details: human, 0 h, 10 µM, compound concentration 10 uM, replicate number 2
Label FALSE if Growth Rate falls below -0.8; label TRUE in every other case.

Here's what some known entries look like.
MOLECULE	MEASURED ON	DISCRETE LABEL
C=CC(=O)Nc1cccc(C)c1Nc1ncc2cc(-c3c(Cl)c(OC)cc(OC)c3Cl)ccc2n1	U2OS	TRUE
CC(=O)N1CCN(c2ccc(OCC3COC(Cn4ccnc4)(c4ccc(Cl)cc4Cl)O3)cc2)CC1 (stereo not given)	U2OS	FALSE
O=C(Nc1ccccc1Br)N[C@@H]1CCN(c2ccc(C(F)(F)F)cn2)C1	U2OS	FALSE

## Task # bool: Growth Rate of Clc1ccccc1C(c1ccccc1)(c1ccccc1)n1ccnc1 >= -0.8
## Result TRUE

## Task Would you say Cc1cc(SCc2sc(-c3ccc(C(F)(F)F)cc3)nc2C)ccc1OCC(=O)O shows Growth Rate at minimum -0.8?
## Result TRUE

## Task Could you please find out whether Cc1c(C(=O)NCCCN(C)C)sc2ncnc(Nc3ccc(F)cc3OC(C)CF)c12 (stereo not given) has Growth Rate that meets -0.8 or exceeds it?
## Result TRUE

## Task Reported Growth Rate at or above -0.8? C[S+](C)[O-] [DIMETHYL SULFOXIDE]
## Result TRUE

## Task Dear colleague, could you confirm whether COc1cc(-c2nn([C@H]3CC[C@H](N4CCN(C(C)=O)CC4)CC3)c3ncnc(N)c23)ccc1NC(=O)c1cc2ccccc2n1C has Growth Rate at or above -0.8?
## Result TRUE

## Task Please check the record CCOC(=O)c1ccc(N2C(=O)C(O)=C(C(=O)c3ccc(OC)cc3)C2c2ccc(F)cc2)cc1 (stereo not given) and state if its Growth Rate is at or above -0.8.
## Result TRUE

## Task Does Growth Rate meet or surpass -0.8 for Cc1c(-c2cc(-c3ccccc3Cl)no2)cnn1C1CCNCC1.Cl ?
## Result FALSE

## Task Decide: is the reported value of Growth Rate for CCCCCCCC/C=C\CCCCCCCC(=O)NCCO [OLEOYLETHANOLAMIDE] equal to or greater than -0.8?
## Result TRUE

## Task Hello, I need to know if Fc1ccc(-c2c3cccc(C(F)(F)F)c3nn2Cc2ccc(F)cc2Cl)cc1 has measured Growth Rate not below -0.8. Thanks!
## Result TRUE

## Task Identify whether the reported Growth Rate of the following molecule is -0.8 or greater: Cc1nc2ccc(Oc3ccc(F)cc3)cc2c(=O)n1C[C@H]1CCCN(C(C)C)C1.Cl
## Result TRUE

## Task Does O=C(N[C@H](Cc1ccccc1)C(=O)O)c1cccc(OCc2cccnc2)c1.O=CO have a reported Growth Rate of at least -0.8?
## Result TRUE

## Task API: above_or_equal(metric=Growth Rate, cutoff=-0.8) for item NC(=O)c1ccc2[nH]c(-c3ccc(Oc4ccc(Cl)cc4)cc3)nc2c1
## Result TRUE

----------
Tested on: Fibroblast
Experiment: Incucyte cell viability with human fibroblast; also: unitless GR value; below 1 slowed growth and below 0 cell loss
Type: toxicity, cell-based
Details: 0 h, 10 µM, compound concentration 10 uM, replicate number 2
Binary call on Growth Rate: fulfilled from -0.4 upward, not fulfilled beneath that.

## Task Growth Rate >= -0.4 for O=C(Nc1ccc(Cl)nc1)c1ccc(Cl)cc1 ?
## Result not fulfilled

## Task For this molecule, is measured Growth Rate -0.4 or higher? COc1ccc(CC(=O)NCc2ccccc2-c2ccccc2C(=O)NCc2ccc(F)cc2F)cc1
## Result fulfilled

## Task Decide: is the reported value of Growth Rate for Cl.c1ccc2c(c1)CCC[C@H]2Nc1nc2ccccc2[nH]1 equal to or greater than -0.4?
## Result fulfilled

## Task Is Growth Rate for Cc1ccc(NC(=O)c2ccc3c(c2)OCCO3)cc1NC(=O)c1ccc2nc(OCCN3CCCC3)ccc2c1 at or above -0.4?
## Result not fulfilled

## Task Determine whether measured Growth Rate meets or exceeds -0.4 for O=c1[nH]c(CS[C@H]2CC[C@H](O)CC2)nc2cc(OCC3CC3)cc(F)c12
## Result fulfilled

----------
System: U2OS
Assay: Incucyte cell viability with U2OS; also: unitless GR value; below 1 slowed growth and below 0 cell loss
Format: toxicity, cell-based
Details: human, 18 h, 10 µM, compound concentration 10 uM, replicate number 2
VALUE TYPE: Growth Rate

Known results for compounds:
COMPOUND	Growth Rate
COc1cccc(-c2c(C)c(Cc3c(F)cccc3C(F)(F)F)c3n(c2=O)[C@@H]([C@@H](N)c2ccccc2)CS3)c1F	0.91
O=C(Nc1ccc(-n2nc(C(F)(F)F)cc2C(F)(F)F)cc1)c1ccncc1F	0.66
CN(C)CCCN1c2ccccc2Sc2ccc(Cl)cc21.Cl [CHLORPROMAZINE HYDROCHLORIDE]	0.33
CC(C)(C)NC(=O)c1cncn1C1CCN(c2ccc(-c3nnc(C(F)(F)F)o3)cn2)CC1	0.46
COc1ccc(N(C(=O)Nc2c(C)cccc2C)c2cc(Nc3ccc(N4CCN(C)CC4)cc3)ncn2)c(OC)c1	0.14
CN1CCc2cc(Nc3ncc(C(F)(F)F)c(NCc4cc[nH]n4)n3)ccc2C1	0.37

## Task So what does the record say about Growth Rate for Cc1ccc(-c2cn3nc(C(=O)NC4(c5ccc(F)cc5)CN(C)C4)c(C(C)C)c3c(=O)[nH]2)cc1C ?
## Result 0.74

## Task State the recorded Growth Rate for this entry: CNc1nc(-c2cc(C(=O)N3CCN(Cc4ccc(Cl)cc4)CC3)c(Cl)cn2)cs1
## Result 0.37

----------
System: Fibroblast
Experiment: Incucyte cell viability with human fibroblast; also: unitless GR value; below 1 slowed growth and below 0 cell loss
Assay type: toxicity, cell-based
Details: 24 h, 10 µM, compound concentration 10 uM, replicate number 2
Catalogue of Growth Rate readings, one per entry.
Note: the reply should be a number with no unit written.

Solved entries:
MOLECULE	Growth Rate
Cc1c[nH]c(-c2cnc(NCCNc3ccc(C#N)cn3)nc2-c2ccc(Cl)cc2Cl)n1 [LADUVIGLUSIB]	-0.28
CS(=O)(=O)O.C[C@H](NC(=O)c1cnc2n1[C@](C)(Cc1ccc(C#N)cc1)C(=O)N2c1cc(Cl)c(F)c(Cl)c1)C(=O)NC1(c2ccccn2)CC1	0.87
Cc1ccc(C(=O)Nc2cc(N3CCN(C)CC3)cc(C(F)(F)F)c2)cc1-n1cc(-c2cnn(C)c2C)nn1.Cl	0.18
COc1cc(NC(=O)c2ccc(-c3ccc(Cl)cc3)o2)cc(OC)c1	0.45
Cn1cc(C(=O)O)c2ccc(N3CCC(OCc4c(-c5c(Cl)cccc5Cl)noc4C4CC4)CC3)cc21 [TERN-101]	0.87
CCCCCCCCCCCCCC(=O)O[C@@H]1[C@@H](C)[C@@]2(O)[C@@H](C=C(CO)C[C@]3(O)C(=O)C(C)=C[C@@H]23)[C@@H]2C(C)(C)[C@]12OC(C)=O [PHORBOL MYRISTATE ACETATE]	0.78

## Task Form entry - test system: Fibroblast; read-out: Growth Rate; molecule: CCOC(=O)N1CCC(c2cc(O)n3nc(C)c(-c4ccc(F)cc4)c3n2)CC1
## Result 0.92

## Task Recorded Growth Rate for COc1ccc(-c2coc3cc(O)cc(O)c3c2=O)cc1 [BIOCHANIN] with Fibroblast, please?
## Result 0.94

## Task Please provide the recorded Growth Rate for CN(C)CCCNc1ccnc(Nc2cccc(Cl)c2)n1 , tested on Fibroblast.
## Result 0.38

----------
System: U2OS
Assay: Incucyte cell viability with U2OS; also: unitless GR value; below 1 slowed growth and below 0 cell loss
Format: toxicity, cell-based
Details: human, 12 h, 10 µM, compound concentration 10 uM, replicate number 1
VALUE TYPE: Growth Rate
Keep it simple and answer with nothing but the number.

MOLECULE	Growth Rate
C=C1/C(=C\C=C2/CCC[C@]3(C)[C@@H]([C@H](C)CCCC(C)(C)O)CC[C@@H]23)C[C@@H](O)C[C@@H]1O	-0.16

## Task What measured Growth Rate goes with O=C(Nc1ccc(S(=O)(=O)Nc2nccs2)cc1)C(c1ccccc1)c1ccccc1 ?
## Result 0.81

## Task Field request: Growth Rate | item: O=C(Nc1ccc(Cl)nc1)c1ccc(Cl)cc1
## Result 0.95

## Task Endpoint output: Growth Rate of Cc1nccn1-c1ccc(Sc2cccc(C3(C(N)=O)CCOCC3)c2)cc1 . Value?
## Result 0.88

## Task What Growth Rate value was documented for this molecule, CC[C@H](Nc1c(C#N)c(-c2ccc(-c3cccc(C)c3F)cc2)nc2cnccc12)C(=O)O ?
## Result 0.56

## Task // Growth Rate lookup, key: Oc1c(CN2CCCC2)cc(COCc2ccccc2)c2cccnc12
## Result 0.55

----------
Tested on: Fibroblast
Assay: Incucyte cell viability with human fibroblast; also: unitless GR value; below 1 slowed growth and below 0 cell loss
Format: toxicity, cell-based
Settings: 18 h, 10 µM, compound concentration 10 uM, replicate number 1
Property: Growth Rate; scope: individual molecules

Some molecules with recorded Growth Rate:
MOLECULE	Growth Rate
Cl.NC(=O)c1ccccc1Nc1nc(-c2ccc(N3CCOCC3)cc2)cc2ncccc12	0.13
c1ccc2c(-c3coc4cc(-c5ccc(N6CCNCC6)cc5)cnc34)ccnc2c1	0.29
CO[C@H](C)CN1CC[C@@]2(C)c3ccc(O)cc3C[C@@H]1C2(C)C.Cl	0.79
O=C(O)CCCCN(CCc1cc(F)ccc1OCc1ccc(-c2ccc(C(F)(F)F)cc2)cc1)Cc1ccc(C(=O)O)cc1	0.85
O=C(O)/C=C/c1ccc(Cn2ccnc2)cc1 [OZAGREL]	0.97
COC[C@@H](C)N[C@H]1CC[C@H](Nc2cc(-c3cccc(NCC4(C#N)CCOCC4)n3)c(Cl)cn2)CC1	-0.12
COc1ccc(-n2nc(C(F)(F)F)cc2-c2ccc(Cl)cc2)cc1 [SC-560]	0.62
CCOC(=O)c1cncn1[C@H](C)c1ccccc1 [ETOMIDATE]	0.21
Cc1nc2c([nH]1)c(=O)n(C)c(=O)n2Cc1ccco1 [FURAFYLLINE]	0.5

## Task Quick check: Growth Rate of Nc1nccc(-c2ccn3c(N)nccc23)n1 ?
## Result 0.49
